Tested on: FGFR1
TEST_PROTOCOL: Phage display selection against FGFR1 with Miseq analysis of the bound phages
Assay type: binding
TEST_CONTEXT: phage library after panning Round 5, bound to 10 nM FGFR1
ENDPOINT_NAME: 10 nM Num. of reads
Could you keep your reply to the number by itself?

# annotated cases, reported 10 nM Num. of reads shown
CAAELAALEAELAALEGNTANDPTASGKLKYLKYKLSNLKHAC [100n606]    894
CAAELAALEAELAALEGVPALVGQEGGKLVLLKWKLWRLKNAC [100n36]    677
CAAELAALEAELAALEGADAFTLGSAGKLMMLKEKLNHLKHAC [100n1348]    473
CAAELAALEAELAALEGGMATDHMNRGKLYRLKNKLHFLKIAC [100n781]    262
CAAELAALEAELAALEGAKKAEEGQKGKLYRLKNKLHYLKSAC [100n423]    867
CAAELAALEAELAALEGPHPRHHHPHGKLKKLKRKLYKLKQAC [100n222]    776
CAAELAALEAELAALEGSSMDHVAYTGKLRMLKFRLELLKGAC [100n1543]    276
CAAELAALEAELAALEGREPSGAMGSGKLKRLKYKLQNLKHAC [100n1793]    493

Please turn your attention to the following entry.
// 10 nM Num. of reads value for CAAELAALEAELAALEGDCLAGGCSFGKLLNLKQKLIRLKRAC [100n108] : 1155

* * *

System: FGFR1
TEST_PROTOCOL: Phage display selection against FGFR1 with Miseq analysis of the bound phages
Type: binding
TEST_CONTEXT: phage library after panning Round 5, bound to 10 nM FGFR1
10 nM Num. of reads of 1000 or higher: Yes. Under 1000: No.

q: Could you tell me if the measured 10 nM Num. of reads of CAAELAALEAELAALEGSVALGNKAGGKLRLLKLKLELLKDAC [100n1314] reaches 1000 or more?
a: No

* * *

Tested on: FGFR1
TEST_PROTOCOL: Phage display selection against FGFR1 with Miseq analysis of the bound phages
Assay type: binding
TEST_CONTEXT: phage library after panning Round 5, bound to 10 nM FGFR1
ENDPOINT_NAME: 10 nM Num. of reads
Could you keep your reply to the number by itself?

# annotated cases, reported 10 nM Num. of reads shown
CAAELAALEAELAALEGMSNHTLGSIGKLMLLKDKLESLKEAC [100n1074]    688
CAAELAALDAELAALEGARLGKMSKVGKLIKLKEKLQNLKMAC [100n182]    1468
CAAELAALEAELAALEGGRFSGLQEKGKLYGLKNKLHYLKRAC [100n368]    2177
CAAELAALEAELAALEGAVGDKRKSKGKLMMLKQKLELLKGAC [100n85]    9230
CAAELAALEAELAALEGVPGDNNGTRGKLYHLKNKLHRLKNAC [100n9]    7169
CAAELAALEAELAALEGVGRLYHMASGKLDRLKGKLMVLKYAC [100n82]    7109
CAAELAALEAELAALEGAWVEQVNRRGKLDGLKMKLQRLKLAC [100n51]    1000
CAAELAALEAELAALEGVKELTLGTVGKLMSLKYKLWSLKQAC [100n83]    6581

// 10 nM Num. of reads value for CAAELAALEAELAALEGLGGFFNLRTGKLDELKMKLQHLKQAC [100n84] : 854

These data points were gathered from patent US20230139883A1.
